target: KPC-2 β-lactamase (Class A carbapenemase) (Klebsiella pneumoniae); test: β-Lactamase inhibition, KPC-2; settings: imipenem substrate, 300 nm; 15 min preincubation at 37° C., PBS pH 7.4
Sequence (Q9F663 25-293, looked up): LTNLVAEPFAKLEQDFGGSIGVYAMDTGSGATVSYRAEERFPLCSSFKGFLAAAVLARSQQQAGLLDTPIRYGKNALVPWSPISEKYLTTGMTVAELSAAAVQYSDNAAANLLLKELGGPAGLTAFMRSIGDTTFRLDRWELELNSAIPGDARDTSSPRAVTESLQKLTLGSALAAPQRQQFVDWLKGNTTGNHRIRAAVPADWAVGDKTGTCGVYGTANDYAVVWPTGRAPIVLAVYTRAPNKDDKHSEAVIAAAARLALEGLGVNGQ
# IC50 listing for each entry below

Illustrative cases are given below, each with its answer.
CN(CC(=O)N[C@H]1Cc2cccc(C(=O)O)c2OB1O)C1CCNCC1	< 100 nM
O=C(CN1CCNCC1=O)N[C@H]1Cc2cccc(C(=O)O)c2OB1O	100 to 1000 nM
N=C(N)NCCN1CCN(CC(=O)N[C@H]2Cc3cccc(C(=O)O)c3OB2O)C(=O)C1	1000 to 10000 nM

Supply measured IC50 of NCC(=O)N1CCN(CC(=O)N[C@H]2Cc3cccc(C(=O)O)c3OB2O)CC1 in your reply.
100 to 1000 nM

Quickly give me recorded IC50 for N=C(N)N1CCC(CC(=O)N[C@H]2Cc3cccc(C(=O)O)c3OB2O)CC1
100 to 1000 nM

Read the entry NCC1CN(CC(=O)N[C@H]2Cc3cccc(C(=O)O)c3OB2O)CCC1N (stereo partly shown) and write its reported IC50.
100 to 1000 nM

Query IC50 for N=C(N)NCC1CCCN(CC(=O)N[C@H]2Cc3cccc(C(=O)O)c3OB2O)C1 (stereo partly shown)
100 to 1000 nM
